target: JAK1 (Homo sapiens, UniProt P23458); assay: JAK assay (KINASE-GLO luminescent kinase assay), JAK1; type: biochemical; details: 10 nM JAK enzyme, 800 nM Abl peptide, room temperature 75 min
Sequence (P23458 whole entry): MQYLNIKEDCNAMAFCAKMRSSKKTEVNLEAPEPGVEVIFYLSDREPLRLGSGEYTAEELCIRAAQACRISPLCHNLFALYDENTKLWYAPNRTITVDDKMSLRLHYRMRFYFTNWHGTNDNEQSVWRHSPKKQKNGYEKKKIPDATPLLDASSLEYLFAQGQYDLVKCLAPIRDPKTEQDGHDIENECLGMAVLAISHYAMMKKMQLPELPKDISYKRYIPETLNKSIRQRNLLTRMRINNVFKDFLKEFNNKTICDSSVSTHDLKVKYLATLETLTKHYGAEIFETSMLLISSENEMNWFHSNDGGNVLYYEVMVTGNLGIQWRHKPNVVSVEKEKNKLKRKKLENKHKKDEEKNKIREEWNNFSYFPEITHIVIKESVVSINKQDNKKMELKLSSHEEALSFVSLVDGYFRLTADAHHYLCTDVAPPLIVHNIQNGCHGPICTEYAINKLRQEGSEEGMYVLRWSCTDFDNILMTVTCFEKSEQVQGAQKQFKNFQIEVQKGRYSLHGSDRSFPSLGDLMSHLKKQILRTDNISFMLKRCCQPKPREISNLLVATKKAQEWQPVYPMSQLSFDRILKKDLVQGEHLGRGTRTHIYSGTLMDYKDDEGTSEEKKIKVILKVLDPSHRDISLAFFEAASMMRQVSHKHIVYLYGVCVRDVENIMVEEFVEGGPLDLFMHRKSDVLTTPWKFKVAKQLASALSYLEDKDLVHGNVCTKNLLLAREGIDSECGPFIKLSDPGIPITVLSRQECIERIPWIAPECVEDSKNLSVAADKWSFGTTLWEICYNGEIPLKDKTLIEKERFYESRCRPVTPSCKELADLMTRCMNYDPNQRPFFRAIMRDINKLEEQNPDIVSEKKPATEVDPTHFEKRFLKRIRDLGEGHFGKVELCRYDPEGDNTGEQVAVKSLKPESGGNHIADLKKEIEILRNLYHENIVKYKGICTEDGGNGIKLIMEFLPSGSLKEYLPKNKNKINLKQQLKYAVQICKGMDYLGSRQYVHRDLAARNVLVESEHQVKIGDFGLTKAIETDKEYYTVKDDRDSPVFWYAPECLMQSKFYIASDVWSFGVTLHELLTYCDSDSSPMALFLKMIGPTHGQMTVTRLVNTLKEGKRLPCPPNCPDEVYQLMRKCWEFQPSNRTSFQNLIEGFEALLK
reported_endpoint: IC50

Cc1cnc(Nc2ccc(CO)c(CO)c2)nc1-c1cnn(CC2(CF)CC2)c1 [CC1═C(N═C(NC2═CC═C(CO)C] | < 100 nM
COC(=O)c1cccc(Nc2ncc(Cl)c(-c3cnn(CCC#N)c3)n2)c1 [COC(═O)C1═CC═CC(═C1)NC2═NC] | < 100 nM
Cc1cnc(Nc2ccc(C3CN(C(=O)OC(C)(C)C)C3)cc2)nc1-c1cnn(CCC#N)c1 [CC1═C(N═C(NC2═CC═C(C═C2)C3CN] | < 100 nM
FC(F)C1(Cn2cc(-c3nc(Nc4ccc5cnoc5c4)ncc3Cl)cn2)COC1 [FC(F)C1(COC1)C[N]2C═C(C═N2)C3═C] | < 1000 nM
CN1CCN(c2ccc(Nc3ncc(Cl)c(-c4cnn(CC5(C#N)CC5)c4)n3)cn2)CC1 [CN1CCN(CC1)C2═NC═C(NC3═NC(═C] | < 100000 nM
Cc1cnc(Nc2ccc(S(C)(=O)=O)c(F)c2)nc1-c1cnn(CC2(Cl)CC2)c1 [CC1═C(N═C(NC2═CC═C(C(═C2)F)[S]] | < 100 nM

Okay, now this molecule:
[ask] Query (molecule): Cc1cnc(Nc2ccc(N3CCOCC3)cc2)nc1-c1cnn(CC2(C#N)CC2)c1 [C(C1═C(N═C(NC2═CC═C(C═C2)N3CCOCC3)] ; field requested: IC50
[reply] < 100 nM

###

target: JAK1 (Homo sapiens); experiment: JAK assay (KINASE-GLO luminescent kinase assay), JAK1; type: biochemical; conditions: 10 nM JAK enzyme, 800 nM Abl peptide, room temperature 75 min
Below, each entry is listed with its recorded IC50.

Cc1cnc(Nc2cccc(C(N)=O)c2)nc1-c1cnn(CC2(CF)CC2)c1 | < 100 nM

// next entry
[ask] Consider the compound Cc1cnc(Nc2cc(CN3CCN(C)CC3)ns2)nc1-c1cnn(CC2(CF)CC2)c1 and give its measured IC50.
[reply] < 1000 nM

###

target: JAK2 (Homo sapiens, UniProt O60674); assay: JAK assay (KINASE-GLO luminescent kinase assay), JAK2; type: biochemical; settings: 10 nM JAK enzyme, 800 nM Abl peptide, room temperature 75 min
Sequence (O60674 whole entry): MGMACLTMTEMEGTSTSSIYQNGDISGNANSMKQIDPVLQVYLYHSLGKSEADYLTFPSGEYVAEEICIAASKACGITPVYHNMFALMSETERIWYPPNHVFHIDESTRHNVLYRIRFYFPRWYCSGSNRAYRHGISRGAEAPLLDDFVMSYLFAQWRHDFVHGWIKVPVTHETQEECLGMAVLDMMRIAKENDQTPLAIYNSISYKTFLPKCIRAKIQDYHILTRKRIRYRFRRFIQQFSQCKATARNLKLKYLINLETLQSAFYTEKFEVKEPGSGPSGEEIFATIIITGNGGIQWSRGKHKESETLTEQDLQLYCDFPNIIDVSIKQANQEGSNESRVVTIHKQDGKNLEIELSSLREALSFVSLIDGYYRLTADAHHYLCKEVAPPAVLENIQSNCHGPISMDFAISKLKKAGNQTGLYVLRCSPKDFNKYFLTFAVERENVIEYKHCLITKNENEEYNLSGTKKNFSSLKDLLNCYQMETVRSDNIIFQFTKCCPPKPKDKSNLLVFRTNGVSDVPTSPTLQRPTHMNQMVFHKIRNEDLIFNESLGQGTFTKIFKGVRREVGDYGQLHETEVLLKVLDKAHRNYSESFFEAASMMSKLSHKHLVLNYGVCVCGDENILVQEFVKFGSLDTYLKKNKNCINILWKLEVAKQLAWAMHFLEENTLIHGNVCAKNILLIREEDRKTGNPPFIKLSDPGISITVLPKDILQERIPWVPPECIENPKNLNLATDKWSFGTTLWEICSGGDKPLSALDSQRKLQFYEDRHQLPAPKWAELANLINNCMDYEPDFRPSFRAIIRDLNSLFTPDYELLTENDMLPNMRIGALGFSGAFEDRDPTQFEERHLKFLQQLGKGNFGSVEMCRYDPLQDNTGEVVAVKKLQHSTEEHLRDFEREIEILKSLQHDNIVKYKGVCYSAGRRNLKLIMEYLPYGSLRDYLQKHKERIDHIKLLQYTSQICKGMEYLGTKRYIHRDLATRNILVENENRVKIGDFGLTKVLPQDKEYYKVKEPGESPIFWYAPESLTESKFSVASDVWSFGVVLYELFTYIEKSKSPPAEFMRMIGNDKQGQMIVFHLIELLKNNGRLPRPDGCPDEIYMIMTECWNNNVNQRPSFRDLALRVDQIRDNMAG
IC50 reference

These recorded examples may help you get a feel for the data.
CS(=O)(=O)N(c1ncc(Cl)c(-c2cnn(CCC#N)c2)n1)S(C)(=O)=O [C[S](═O)(═O)N(C1═NC(═C] | < 100000 nM
FC(F)C1(Cn2cc(-c3nc(Nc4ccc5cnoc5c4)ncc3Cl)cn2)COC1 [FC(F)C1(COC1)C[N]2C═C(C═N2)C3═C] | < 10 nM
Clc1cnc(Nc2cccc(CN3CCC3)c2)nc1 | < 10 nM
CN1CCN(c2ccc(Nc3ncc(Cl)c(-c4cnn(CC5(C#N)CC5)c4)n3)cn2)CC1 | < 1000 nM
CCS(=O)(=O)N1CC(CF)(Cn2cc(-c3nc(Nc4cc(C)ns4)ncc3Cl)cn2)C1 [CC[S](═O)(═O)N1CC(CF)(C[N]2C═C] | < 10 nM
CNC1(Cn2cc(-c3nc(Nc4cc(C)ns4)ncc3Cl)cn2)CC1 [CNC1(CC1)C[N]2C═C(C═N2)C3═C] | < 10 nM
Cc1cc(Nc2ncc(C)c(-c3cnn(CC4(CF)CCC4)c3)n2)ccn1 | < 10 nM
COC(=O)c1cc(Nc2ncc(C)c(-c3cnn(CCC#N)c3)n2)ccc1N1CCOCC1 [COC(═O)C1═C(C═CC(═C1)NC2═NC(═C] | < 10 nM

[ask] Given the entry N#CCCn1cc(-c2nc(NC3CCNCC3(F)F)ncc2Cl)cn1 (centres unmarked) , report its measured IC50.
[reply] < 100000 nM

[ask] If you can, please state the reported IC50 value of N#CC1(Cn2cc(-c3nc(Nc4ccc(C(=O)O)nc4)ncc3Cl)cn2)CC1 .
[reply] < 10 nM

[ask] Which measured IC50 value corresponds to COc1cnc(Nc2ccc(C3(O)COC3)cc2)nc1-c1cnn(CC2(CF)CC2)c1 ?
[reply] < 10 nM

[ask] Suppose we examine the compound CC(C)(C)OC(=O)N1CC(CO)(Cn2cc(-c3nc(Nc4ccc(C(N)=O)cc4)ncc3Cl)cn2)C1 [CC(C)(C)OC(═O)N1CC(CO)(C1)C[N]2C═C] ; what IC50 value has been reported?
[reply] < 100 nM

[ask] Data request, read-out IC50, for Cc1cnc(Nc2ccc(N3CC4(COC4)C3)cc2)nc1-c1cnn(CC2(CF)CC2)c1 [CC1═C(N═C(NC2═CC(═C(C═C2)N3CC4]
[reply] < 10 nM

[ask] Report IC50 for Cc1ccc(Nc2ncc(C)c(-c3cnn(CC4(Cl)CC4)c3)n2)cc1S(C)(=O)=O [CC1═CC═C(NC2═NC(═C(C)C═N2)C3═C[N]] please.
[reply] < 100 nM

[ask] Which IC50 value belongs to Cc1ccc(S(=O)(=O)Nc2ncc(Cl)c(-c3cnn(CCC#N)c3)n2)cc1 [CC1═CC═C(C═C1)[S](═O)(═O)NC2═NC] ?
[reply] < 100000 nM

[ask] # lookup: IC50 of COC1(c2ccc(Nc3ncc(C)c(-c4cnn(CC5(CF)CC5)c4)n3)cc2)COC1
[reply] < 100 nM
